meta.source: patent US20240245658A1

Property: EC50; scope: individual compounds
ASSAYED_TARGET: human TAAR1 receptors (Homo sapiens)
Sequence (Q96RJ0 whole entry): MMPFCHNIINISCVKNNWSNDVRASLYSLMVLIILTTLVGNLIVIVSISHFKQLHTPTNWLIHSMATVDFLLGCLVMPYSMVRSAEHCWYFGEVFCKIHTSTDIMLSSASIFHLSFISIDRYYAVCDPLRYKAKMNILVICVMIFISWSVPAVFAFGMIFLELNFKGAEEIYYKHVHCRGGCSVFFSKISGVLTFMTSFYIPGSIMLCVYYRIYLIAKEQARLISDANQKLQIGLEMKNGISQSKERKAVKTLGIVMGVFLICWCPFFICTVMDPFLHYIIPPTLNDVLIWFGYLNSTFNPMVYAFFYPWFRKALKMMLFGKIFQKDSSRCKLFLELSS
PROCEDURE_TEXT: TAAR1 Agonism Assay: cAMP HTRF assay for Gs coupled receptor TAAR1 (Euroscreen FAST-0987C)
PARTICULARS: CHO-K1 cells expressing human TAAR1, cAMP HTRF
Method: Dose response curves were performed in parallel with the reference compound, tyramine. For the TAAR1 agonist test (performed in a 384 well plate): 5 μl of cells (about 3,000 cells) were mixed with 5 μl of the test compound diluted in assay buffer and then incubated for about 30 minutes at about room temperature. […]

| COMPOUND | EC50 |
| --- | --- |
| NCC1Oc2ccccc2Oc2cccnc21 (single isomer, unassigned) [Compound 59] | < 1000 nM |
| CCNCC1Cc2ccccc2Oc2cccnc21 (single isomer, unassigned) [Compound 108] | < 1000 nM |
| N#Cc1ccc2c(c1)C(CN)Cc1ncccc1O2 (single isomer, unassigned) [Compound 159] | 1000 to 10000 nM |
| CNCC1Cc2ncccc2Oc2c(F)cccc21 (single isomer, unassigned) [Compound 178] | < 1000 nM |
| CNCC1Cc2ccncc2Oc2ccccc21 (single isomer, unassigned) [Compound 24] | > 10000 nM |
| CNCC1Cc2ccc(F)cc2Oc2ccccc21 (single isomer, unassigned) [Compound 90] | > 10000 nM |
| NCC1Cc2ccccc2Oc2cc(F)ccc21 (single isomer, unassigned) [Compound 2] | < 1000 nM |
| Cc1ccc2c(c1)Oc1cccnc1C(CN)C2 (single isomer, unassigned) [Compound 132] | < 1000 nM |
| CNCC1Cc2c(C)cccc2Oc2cccnc21 (single isomer, unassigned) [Compound 143] | < 1000 nM |
| CCc1ccc2c(n1)C(CN)Cc1ccccc1O2 (single isomer, unassigned) [Compound 151] | < 1000 nM |
| CNCC1Cc2ccc(Cl)cc2Oc2cccnc21 (single isomer, unassigned) [Compound 126] | < 1000 nM |
| CNCC1Cc2cc(Cl)ccc2Oc2cccnc21 (single isomer, unassigned) [Compound 123] | < 1000 nM |
| NCC1Oc2ccccc2Oc2cnccc21 (single isomer, unassigned) [Compound 49] | 1000 to 10000 nM |
| CNCC1Cc2ncccc2Oc2ccc(Cl)cc21 (single isomer, unassigned) [Compound 170] | < 1000 nM |
| NCC1Cc2ccccc2Oc2ccc(F)cc21 (single isomer, unassigned) [Compound 92] | < 1000 nM |
| NCC1Cc2ccccc2Oc2cc(F)ccc21 (single isomer, unassigned) [Compound 1] | 1000 to 10000 nM |
